Assay: Protective index, ratio of TD50 for toxicity in Sprague-Dawley rat assessed as median toxicity dose at po administration upto 4 hrs by rotorod test to ED50 for anticonvulsant activity in Sprague-Dawley rat assessed as protection against maximal electroshock induced seizure at po administration upto 4 hrs
Format: organism-based
Settings: in vivo, read-out: Ratio TD50/ED50
Reported property: selectivity ratio at 4 h

Reported selectivity ratio at 4 h ( CCOC(=O)C1C(=O)C=C(Nc2cc(C)on2)CC1C (stereo unspecified) ) = > 49.6

====

Test: Protective index, ratio of TD50 for toxicity in CF-1 mouse assessed as median toxicity dose at ip administration upto 4 hrs by rotorod test to ED50 for anticonvulsant activity in CF-1 mouse assessed as protection against maximal electroshock induced seizure at ip administration upto 4 hrs
Format: organism-based
Conditions: in vivo, read-out: Ratio TD50/ED50
// values below are reported selectivity ratio at 4 h

{"Compound": "CC1CC(Nc2ccon2)=CC(=O)C1C(=O)OC(C)(C)C (configuration not stated)", "Measured": "> 17.8"}

Recorded selectivity ratio at 4 h (compound COC(=O)C1C(=O)C=C(Nc2cc(C)on2)CC1C (configuration not stated) ): > 7.3
